assayed system: UniProt:P31424
protocol summary: mGluR5 assay on HEK-expressing rat mGluR5 (fluorescent cell based Ca2+ mobilization assay)
conditions: HEK-293 cells stably expressing rat mGluR5; no co-addition of glutamate; mean of at least three independent experiments in duplicate; read-out: Ca++ Flux (mean EC50)
As shown below, each of these compounds has a reported EC50 value.

For orientation, consider the following solved cases.
[[record]]
compound = "O=C(c1ccc(F)cc1)N1CCC[C@H](c2nc(-c3cscn3)no2)C1 [Example 50]"
readout_label = "EC50"
readout_value = "1000 to 10000 nM"

[[record]]
compound = "O=C(c1ccc(F)cc1)N1CCC[C@H](c2nc(-c3cccs3)no2)C1 [Example 37]"
readout_label = "EC50"
readout_value = "< 1000 nM"

[[record]]
compound = "O=C(c1ccc(F)nc1)N1CCC[C@H](c2nc(-c3ccc(F)cc3)no2)C1 [Example 29]"
readout_label = "EC50"
readout_value = "< 1000 nM"


[in] Report value only: EC50, UniProt:P31424, Cc1cc(F)ccc1C(=O)N1CCC[C@H](c2nc(-c3ccccc3)no2)C1 [Example 63]
[out] 1000 to 10000 nM

###

readout label: melting point

[[record]]
compound = "O=C(c1ccc(F)c(F)c1)N1CCC[C@H](c2nc(-c3ccncc3)no2)C1 [Example 52]"
readout_label = "melting point"
readout_value = "102 to 106 °C"


[in] Report melting point for O=C(c1ccc(F)c(F)c1)N1CCC[C@H](c2nc(-c3ccccn3)no2)C1 [Example 54]
[out] 135 to 137 °C

[in] State its melting point: Cc1cnccc1C(=O)N1CCC[C@H](c2nc(-c3ccc(F)cc3)no2)C1 [Example 27]
[out] 59 to 63 °C

[in] Please supply the value of reported melting point for the item O=C(C1CCOCC1)N1CCC[C@H](c2nc(-c3ccc(F)cc3)no2)C1 [Example 9]
[out] 98 to 100 °C

###

assayed system: mGluR5 (Rattus norvegicus, UniProt P31424)
Construct: positive allosteric modulators of mGluR5 receptors in native preparations; endogenous in cells
Sequence (P31424 21-1203): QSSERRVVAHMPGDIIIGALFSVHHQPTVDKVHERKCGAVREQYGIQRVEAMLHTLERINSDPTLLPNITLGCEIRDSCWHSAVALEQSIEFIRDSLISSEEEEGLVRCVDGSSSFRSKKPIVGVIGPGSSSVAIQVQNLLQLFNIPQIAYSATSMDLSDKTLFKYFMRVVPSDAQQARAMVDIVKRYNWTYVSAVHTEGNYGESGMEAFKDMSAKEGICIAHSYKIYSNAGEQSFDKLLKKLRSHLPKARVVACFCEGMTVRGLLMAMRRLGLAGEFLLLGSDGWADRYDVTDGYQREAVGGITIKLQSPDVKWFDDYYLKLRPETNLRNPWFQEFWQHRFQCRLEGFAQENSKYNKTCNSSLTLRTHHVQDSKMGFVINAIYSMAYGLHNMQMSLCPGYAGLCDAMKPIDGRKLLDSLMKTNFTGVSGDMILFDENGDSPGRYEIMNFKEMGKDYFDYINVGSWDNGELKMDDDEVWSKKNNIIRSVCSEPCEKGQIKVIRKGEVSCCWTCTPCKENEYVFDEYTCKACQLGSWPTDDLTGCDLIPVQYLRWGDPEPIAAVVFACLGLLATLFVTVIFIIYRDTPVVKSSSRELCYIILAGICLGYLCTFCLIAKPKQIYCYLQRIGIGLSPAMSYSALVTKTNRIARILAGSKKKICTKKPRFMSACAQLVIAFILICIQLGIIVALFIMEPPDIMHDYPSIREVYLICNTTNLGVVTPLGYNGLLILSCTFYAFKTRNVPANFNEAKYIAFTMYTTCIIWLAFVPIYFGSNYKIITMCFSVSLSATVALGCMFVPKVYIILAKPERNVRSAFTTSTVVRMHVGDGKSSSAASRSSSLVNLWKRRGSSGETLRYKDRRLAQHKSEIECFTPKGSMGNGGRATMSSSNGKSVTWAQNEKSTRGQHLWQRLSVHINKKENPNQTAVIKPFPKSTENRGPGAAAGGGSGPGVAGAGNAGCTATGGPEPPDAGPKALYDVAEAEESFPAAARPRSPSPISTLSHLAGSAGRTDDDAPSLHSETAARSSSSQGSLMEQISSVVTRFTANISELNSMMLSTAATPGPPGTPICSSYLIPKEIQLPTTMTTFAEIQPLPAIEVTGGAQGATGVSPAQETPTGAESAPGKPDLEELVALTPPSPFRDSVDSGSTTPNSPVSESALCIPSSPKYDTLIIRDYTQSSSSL
protocol summary: mGluR5 binding assay ([3H]-MPEP, rat brain membranes)
conditions: 3 nM [3H]-MPEP, 1 h at 4° C.
pIC50: −log10 of the molar value.
readout label: pIC50

[in] // output pIC50; input O=C(c1ccc(F)nc1)N1CCC[C@H](c2nc(-c3ccc(F)cc3)no2)C1 [Example 29] ; system mGluR5 (Rattus norvegicus, UniProt P31424)
[out] > 4.52

###

readout label: melting point

// known answers, use as guide
[[record]]
molecule = "COc1cc(C(=O)N2CCC[C@H](c3nc(-c4ccc(F)cc4)no3)C2)ccc1F [Example 26]"
readout_value = "109 to 111 °C"

[[record]]
molecule = "N#Cc1cc(C(=O)N2CCC[C@H](c3nc(-c4ccc(F)cc4)no3)C2)ccc1F [Example 3]"
readout_value = "144 to 146 °C"

[[record]]
molecule = "Cc1ncccc1C(=O)N1CCC[C@H](c2nc(-c3ccc(F)cc3)no2)C1 [Example 16]"
readout_value = "115 to 116 °C"


Shift focus to the following entry.
[in] Check the records and state melting point for O=C(c1ccc(F)cc1)N1CCCC1Cc1nc(-c2ccc(F)cc2)no1 (stereo not shown) [Example 2]
[out] 158 to 162 °C
